Target: UniProt:P00533
Details: ht-29
valueKind: IC50
Write down the value, and be sure its unit follows.

Entry under review: Cn1c(S)c(C(=O)Nc2ccccc2)c2ccccc21 . Reported IC50?
55 µM

----------
Recorded inhibition, one value per entry.
Molecular target: EGFR (UniProt P00533)
Sequence (P00533 whole entry, looked up): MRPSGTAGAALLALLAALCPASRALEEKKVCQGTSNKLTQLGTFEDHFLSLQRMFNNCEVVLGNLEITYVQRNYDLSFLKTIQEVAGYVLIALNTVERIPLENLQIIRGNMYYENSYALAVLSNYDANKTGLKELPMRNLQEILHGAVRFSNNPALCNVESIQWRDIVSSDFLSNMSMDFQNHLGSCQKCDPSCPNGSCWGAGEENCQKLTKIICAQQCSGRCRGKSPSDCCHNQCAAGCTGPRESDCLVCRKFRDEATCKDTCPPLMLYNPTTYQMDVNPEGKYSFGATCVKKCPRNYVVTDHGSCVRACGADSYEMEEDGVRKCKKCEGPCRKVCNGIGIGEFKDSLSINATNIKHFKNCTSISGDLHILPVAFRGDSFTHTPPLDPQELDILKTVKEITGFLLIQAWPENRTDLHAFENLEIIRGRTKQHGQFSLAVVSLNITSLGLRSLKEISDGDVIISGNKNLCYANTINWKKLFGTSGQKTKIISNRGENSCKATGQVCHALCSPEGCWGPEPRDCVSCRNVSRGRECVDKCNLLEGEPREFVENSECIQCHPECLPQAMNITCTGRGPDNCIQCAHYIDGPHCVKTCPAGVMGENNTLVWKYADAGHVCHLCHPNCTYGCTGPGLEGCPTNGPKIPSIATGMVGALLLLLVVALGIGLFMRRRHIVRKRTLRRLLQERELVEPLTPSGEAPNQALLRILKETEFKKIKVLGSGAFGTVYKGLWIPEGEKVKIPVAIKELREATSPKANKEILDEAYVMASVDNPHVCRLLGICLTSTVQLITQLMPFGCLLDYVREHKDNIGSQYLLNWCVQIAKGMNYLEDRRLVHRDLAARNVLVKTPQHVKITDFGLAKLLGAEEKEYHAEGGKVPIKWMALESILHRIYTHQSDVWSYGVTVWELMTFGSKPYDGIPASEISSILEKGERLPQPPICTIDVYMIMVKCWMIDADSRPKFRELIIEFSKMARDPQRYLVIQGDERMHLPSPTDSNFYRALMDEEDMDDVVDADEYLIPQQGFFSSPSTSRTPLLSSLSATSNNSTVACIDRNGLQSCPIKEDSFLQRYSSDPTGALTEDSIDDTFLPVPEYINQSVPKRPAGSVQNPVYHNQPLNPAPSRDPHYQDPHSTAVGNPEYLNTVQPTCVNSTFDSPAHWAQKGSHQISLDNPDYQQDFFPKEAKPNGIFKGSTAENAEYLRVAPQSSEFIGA
Details: concentration not given here

Some molecules with known inhibition results, for comparison:
sampleSmiles: CCOC(=O)CCc1c(S)n(C)c2ccccc12
inhibition: 3%
//
sampleSmiles: CCOC(=O)CCc1c(S)[nH]c2ccccc12
inhibition: 10%
//
sampleSmiles: COC(=O)CCCc1c(S)n(C)c2ccccc12
inhibition: 2%
//
sampleSmiles: COC(=O)Cc1c(S)[nH]c2ccccc12
inhibition: 43%
//
sampleSmiles: O=C(CCc1c(S)[nH]c2ccccc12)NCc1ccccc1
inhibition: 43%

Kindly consider the entry below.
Entry under review: CCOC(=O)Cc1c(S)n(C)c2ccccc12 . Reported inhibition?
4%

----------
Molecular target: EGFR (human)
Conditions: a549
valueKind: IC50 (µM)
Return type: number; implicit unit µM.

Entry under review: Cn1c(S)c(C(=O)Nc2ccccc2)c2ccccc21 . Reported IC50?
30

----------
Target: EGFR (murine) (UniProt P00533)
Sequence (P00533 whole entry, looked up): as above
Details: fibroblast
valueKind: IC50

Entry under review: Cn1c(S)c(C(=O)Nc2ccccc2)c2ccccc21 . Reported IC50?
64 µM

----------
Target: EGFR (human) (UniProt P00533)
Sequence (P00533 whole entry, looked up): as above
Settings: mda231
valueKind: IC50 (µM)
Return type: number; implicit unit µM.

Entry under review: Cn1c(S)c(C(=O)Nc2ccccc2)c2ccccc21 . Reported IC50?
15

----------
Consider the following pIC50 values measured on EGFR (UniProt P00533).
For clarity, pIC50 is expressed as the negative log10 of concentration in mol/L.

Some molecules with known pIC50 results, for comparison:
sampleSmiles: NC(=O)CCc1c(S)[nH]c2ccccc12
valueKind: pIC50
measured: 4.66
//
sampleSmiles: Cn1c(S)c(C(=O)c2ccc(C(=O)O)cc2)c2ccccc21
valueKind: pIC50
measured: 5.06

Entry under review: O=C(O)CCCc1c(S)[nH]c2ccccc12 . Reported pIC50?
5.17

// repeat for O=C(Cc1c(S)[nH]c2ccccc12)NCc1ccccc1 and report
4.60

// repeat for O=C(O)CCc1c(S)[nH]c2ccccc12 and report
5.89
